Hello, the source for this data is patent US20150011466A1, in case you need it.

biological target: APJ receptor (Homo sapiens, UniProt P35414); construct: expressed in transfected cells; host or cells: Human TRex cells (doxycycline-inducible); experiment: HTRF cAMP assay, inhibition of NKH477 stimulated cAMP in Human TRex cells expressing APJ upon doxycycline induction (APJ-hTREX); assay type: cell-based; settings: read-out: % IA (@ 300 nM)
Sequence (P35414 whole entry): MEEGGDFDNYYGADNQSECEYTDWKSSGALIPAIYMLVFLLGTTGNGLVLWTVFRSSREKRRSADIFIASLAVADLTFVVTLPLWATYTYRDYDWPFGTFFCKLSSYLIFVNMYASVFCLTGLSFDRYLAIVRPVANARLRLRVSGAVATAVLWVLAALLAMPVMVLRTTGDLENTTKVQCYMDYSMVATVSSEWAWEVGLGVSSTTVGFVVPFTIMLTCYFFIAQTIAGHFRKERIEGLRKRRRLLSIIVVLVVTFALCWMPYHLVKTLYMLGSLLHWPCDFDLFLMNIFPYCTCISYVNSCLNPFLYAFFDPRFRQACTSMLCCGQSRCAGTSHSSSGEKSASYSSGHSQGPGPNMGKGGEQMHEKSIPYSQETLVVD
Where a SMILES comes first, the peptide text is derived from it. [ ]: non-standard residue; d: D form. The star is where a group is joined. Palmitoyl = CCCCCCCCCCCCCCCC(=O)*
MEASUREMENT_NAME: percent intrinsic activity at 0.3 µM (%)
Entry rule: numbers only, all in %.

**Query** Given CCCCCCCCCCCCCCCC(=O)N[C@H](C(=O)N[C@H](C(=O)N[C@@H](Cc1ccccc1)C(=O)N[C@@H](CCCNC(=N)N)C(=O)N[C@@H](CO)C(=O)N[C@@H](CO)C(=O)N[C@@H](CCC(=O)O)C(=O)N[C@H](CCCCN)C(=O)N[C@@H](CCCNC(=N)N)C(=O)N[C@@H](CCCNC(=N)N)C(=O)N[C@@H](CO)C(=O)N[C@@H](C)C(=O)N[C@@H](CC(=O)O)C(=O)N[C@H](C(=O)N[C@@H](Cc1ccccc1)C(=O)NCC(N)=O)[C@@H](C)CC)C(C)C)[C@@H](C)O [Compound 80] (Palmitoyl-TVFRSSE[dK]RRSADIFG-NH2) , respond with its percent intrinsic activity at 0.3 µM.
**Result** 35

**Query** Given CCCCCCCCCCCCCCCC(=O)N[C@H](C(=O)N[C@H](C(=O)N[C@@H](Cc1ccccc1)C(=O)N[C@@H](CCCNC(=N)N)C(=O)N[C@@H](CO)C(=O)N[C@@H](CO)C(=O)N[C@@H](CCC(=O)O)C(=O)N[C@H](CCCCN)C(=O)N[C@@H](CCCNC(=N)N)C(=O)N[C@@H](CCC(N)=O)C(=O)N[C@@H](CO)C(=O)N[C@@H](C)C(=O)N[C@@H](CC(=O)O)C(=O)N[C@H](C(=O)N[C@@H](Cc1ccccc1)C(=O)N[C@H](C(N)=O)[C@@H](C)CC)[C@@H](C)CC)C(C)C)[C@@H](C)O [Compound 27] (Palmitoyl-TVFRSSE[dK]RQSADIFI-NH2) , respond with its percent intrinsic activity at 0.3 µM.
**Result** 7

**Query** Given CCCCCCCCCCCCCCCC(=O)N1CCC[C@H]1C(=O)N[C@H](C(=O)N[C@@H](Cc1ccccc1)C(=O)N[C@@H](CCCNC(=N)N)C(=O)N[C@@H](CO)C(=O)N[C@@H](CO)C(=O)N[C@@H](CCC(=O)O)C(=O)N[C@H](CCCCN)C(=O)N[C@@H](CCCNC(=N)N)C(=O)N[C@@H](CCCNC(=N)N)C(=O)N[C@@H](CO)C(=O)N[C@@H](C)C(=O)N[C@@H](CC(=O)O)C(=O)N[C@H](C(=O)N[C@@H](Cc1ccccc1)C(=O)N[C@H](C(N)=O)[C@@H](C)CC)[C@@H](C)CC)C(C)C [Compound 42] (Palmitoyl-PVFRSSE[dK]RRSADIFI-NH2) , respond with its percent intrinsic activity at 0.3 µM.
**Result** 83

**Query** Given CCCCCCCCCCCCCCCC(=O)N[C@H](C(=O)N[C@H](C(=O)NCC(=O)N[C@@H](CCCNC(=N)N)C(=O)N[C@@H](CO)C(=O)N[C@@H](CO)C(=O)N[C@@H](CCC(=O)O)C(=O)N[C@H](CCCCN)C(=O)N[C@@H](CCCNC(=N)N)C(=O)N[C@@H](CCCNC(=N)N)C(=O)N[C@@H](CO)C(=O)N[C@@H](C)C(=O)N[C@@H](CC(=O)O)C(=O)N[C@H](C(=O)N[C@@H](Cc1ccccc1)C(=O)N[C@H](C(N)=O)[C@@H](C)CC)[C@@H](C)CC)C(C)C)[C@@H](C)O [Compound 70] (Palmitoyl-TVGRSSE[dK]RRSADIFI-NH2) , respond with its percent intrinsic activity at 0.3 µM.
**Result** 81

**Query** Given CCCCCCCCCCCCCCCC(=O)N[C@H](C(=O)N[C@H](C(=O)N[C@@H](Cc1ccccc1)C(=O)N[C@@H](CCC(N)=O)C(=O)N[C@@H](CO)C(=O)N[C@@H](CO)C(=O)N[C@@H](CCC(=O)O)C(=O)N[C@H](CCCCN)C(=O)N[C@@H](CCCNC(=N)N)C(=O)N[C@@H](CCCNC(=N)N)C(=O)N[C@@H](CO)C(=O)N[C@@H](C)C(=O)N[C@@H](CC(=O)O)C(=O)N[C@H](C(=O)N[C@@H](Cc1ccccc1)C(=O)N[C@H](C(N)=O)[C@@H](C)CC)[C@@H](C)CC)C(C)C)[C@@H](C)O [Compound 22] (Palmitoyl-TVFQSSE[dK]RRSADIFI-NH2) , respond with its percent intrinsic activity at 0.3 µM.
**Result** 59

**Query** Given CCCCCCCCCCCCCCCC(=O)N[C@H](C(=O)N[C@H](C(=O)N[C@@H](Cc1ccccc1)C(=O)N[C@@H](CCCNC(=N)N)C(=O)N[C@@H](CO)C(=O)N[C@@H](CO)C(=O)N[C@@H](CCC(=O)O)C(=O)N[C@H](CCCCN)C(=O)N[C@@H](CCCNC(=N)N)C(=O)N[C@@H](CCCNC(=N)N)C(=O)N[C@@H](CO)C(=O)N[C@@H](C)C(=O)N1CCC[C@H]1C(=O)N[C@H](C(=O)N[C@@H](Cc1ccccc1)C(=O)N[C@H](C(N)=O)[C@@H](C)CC)[C@@H](C)CC)C(C)C)[C@@H](C)O [Compound 53] (Palmitoyl-TVFRSSE[dK]RRSAPIFI-NH2) , respond with its percent intrinsic activity at 0.3 µM.
**Result** 75

**Query** Given CCCCCCCCCCCCCCCC(=O)N[C@H](C(=O)N[C@H](C(=O)N[C@@H](Cc1ccccc1)C(=O)N[C@@H](CCCNC(=N)N)C(=O)N[C@@H](CO)C(=O)N[C@@H](CO)C(=O)N[C@@H](CCC(=O)O)C(=O)N[C@H](CCCCN)C(=O)N[C@@H](CCCNC(=N)N)C(=O)NCC(=O)N[C@@H](CO)C(=O)N[C@@H](C)C(=O)N[C@@H](CC(=O)O)C(=O)N[C@H](C(=O)N[C@@H](Cc1ccccc1)C(=O)N[C@H](C(N)=O)[C@@H](C)CC)[C@@H](C)CC)C(C)C)[C@@H](C)O [Compound 76] (Palmitoyl-TVFRSSE[dK]RGSADIFI-NH2) , respond with its percent intrinsic activity at 0.3 µM.
**Result** 46

**Query** Given CCCCCCCCCCCCCCCC(=O)N[C@H](C(=O)N[C@H](C(=O)N[C@@H](Cc1ccccc1)C(=O)N[C@@H](CCCNC(=N)N)C(=O)N[C@@H](CO)C(=O)N[C@@H](CO)C(=O)N[C@@H](CCC(=O)O)C(=O)N[C@H](CCCCN)C(=O)N[C@@H](CCCNC(=N)N)C(=O)N[C@@H](CCCNC(=N)N)C(=O)N[C@@H](CO)C(=O)N[C@@H](C)C(=O)N[C@@H](CC(=O)O)C(=O)N[C@H](C(=O)N[C@@H](Cc1ccccc1)C(=O)N[C@@H](CCC(N)=O)C(N)=O)[C@@H](C)CC)C(C)C)[C@@H](C)O [Compound 32] (Palmitoyl-TVFRSSE[dK]RRSADIFQ-NH2) , respond with its percent intrinsic activity at 0.3 µM.
**Result** 55
